Provenance of the data: patent US20060074255A1

target: bovine thymus vitamin D receptor (Bos taurus, UniProt Q28037); construct: Bovine thymus 1α,25-dihydroxyvitamin D3 receptor was purchased from Yamasa Biochemcal; purchased Yamasa Biochemcal (Choshi, Chiba, Japan) lot; 112631; host or cells: bovine thymus (tissue preparation); experiment: Assay for Binding to Bovine Thymus Vitamin D Receptor (VDR); details: relative value with 1α,25-dihydroxyvitamin D3 taken as 100; X=(y/x)×100 from concentrations inhibiting 50% of [3H]-1α,25-dihydroxyvitamin D3 binding to VDR
Sequence (Q28037 whole entry): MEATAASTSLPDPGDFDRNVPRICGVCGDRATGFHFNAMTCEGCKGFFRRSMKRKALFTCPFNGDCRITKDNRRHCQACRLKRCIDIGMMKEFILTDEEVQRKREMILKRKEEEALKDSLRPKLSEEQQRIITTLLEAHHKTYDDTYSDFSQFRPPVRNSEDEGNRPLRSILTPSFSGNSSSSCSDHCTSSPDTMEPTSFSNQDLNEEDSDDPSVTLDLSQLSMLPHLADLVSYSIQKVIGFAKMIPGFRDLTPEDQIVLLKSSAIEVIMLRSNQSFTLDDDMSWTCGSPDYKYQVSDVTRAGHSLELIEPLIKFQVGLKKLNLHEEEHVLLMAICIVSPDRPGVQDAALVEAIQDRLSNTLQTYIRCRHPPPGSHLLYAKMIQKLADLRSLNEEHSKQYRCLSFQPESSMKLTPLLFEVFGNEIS
Measured Attribute: VDR binding properties

{"columns": ["Molecule", "Target Of Assay", "VDR binding properties"],
 "data": [
  ["C=C1/C(=C\\C=C2/CCC[C@@]3(C)C2CCC3[C@@H](C)CCCC(C)(C)O)C[C@](C)(O)C[C@@H]1O (stereo partly shown)", "bovine thymus vitamin D receptor (Bos taurus, UniProt Q28037)", 0.24]
]}

1. C=C1/C(=C\C=C2/CCC[C@@]3(C)C2CCC3[C@@H](C)CCCC(C)(C)O)C[C@@](C)(O)C[C@H]1O (stereo partly shown)
2. C=C1/C(=C\C=C2/CCC[C@@]3(C)C2CCC3[C@@H](C)CCCC(C)(C)O)C[C@@](C)(O)C[C@@H]1O (stereo partly shown)
Q: Return label of the item with the larger VDR binding properties. Candidates: 1 , 2 . API: response body contains the label of the selected item.
A: 2
(2: 70, 1: 0.035)
